- System: IGROV1 ovarian
- experiment: NCI tumour cell line growth inhibition, 48 h
readout: TGI

// solved cases for TGI follow
- molecule: "O=C1c2cccnc2-c2nc(-c3ccc(Cl)cc3)cc3c2c1nc1ccccc13"
  result: "> 100 µM"
- molecule: "O=Cc1ccccc1COC(=O)c1cc(C(=O)OCc2ccccc2C=O)c(C(=O)OCc2ccccc2C=O)cc1C(=O)OCc1ccccc1C=O"
  result: "> 100 µM"
- molecule: "COC(=O)CC1N=C(NC#N)N(CCc2c[nH]c3ccccc23)C1=O (centres undefined)"
  result: "> 100 µM"
- molecule: "COC(=O)C1=CS/C(=C2\\S[C@@H]3[C@H](S2)[C@H]2C=C[C@@H]3C2)S1"
  result: "> 100 µM"
- molecule: "COC(=O)[C@@]12C(=O)C=CC(=O)C1C1C(=CC2C)OC2OC3(CCCCC3)OC21 (some centres undefined)"
  result: "35.1 µM"
- molecule: "CC(CC[C@@]1(C)C(=O)CCC2O[C@]21C)[C@H]1C[C@@H](c2ccoc2)OC1=O (some centres undefined)"
  result: "> 100 µM"

# lookup: TGI of `COc1ccc(-c2[nH]c3ccc(OC)cc3c2/C=C(\C#N)S(=O)(=O)c2ccccc2)cc1`
> 45.9 µM

Return reported TGI; argument: `C=C(C)[C@H]1Cc2c(ccc3c2O[C@@H]2COc4cc(OC)c(OC)cc4[C@@H]2C3=O)O1`
> 100 µM

Return reported TGI; argument: `C=CCCCCC/C=C\[C@@H](O)C#CC#C/C=C/CO`
> 100 µM

----------
- System: SF-268 CNS
- experiment: NCI tumour cell line growth inhibition, 48 h
readout: GI50

# example entries with known answers
- smiles-str: "COc1ccc2[nH]c3c4[nH]c5ccc(OC)cc5c4c4c(c3c2c1)C(=O)NC4=O"
  GI50: "> 22 µM"
- smiles-str: "CC1(C)C(=O)/C(=C\\c2cccnc2)C[C@]2(C)[C@H]3CC[C@@H]4[C@H]5[C@H](C(=O)/C=C/c6cccnc6)CC[C@]5(C(=O)O)CC[C@@]4(C)[C@]3(C)CC[C@@H]12"
  GI50: "2.15 µM"
- smiles-str: "COc1cc2oc(-c3ccc(O)cc3)c(OC)c(=O)c2c(O)c1OC"
  GI50: "79 µM"

Continue with the compound presented below.
Which GI50 reading was recorded for the compound `Cc1ccc(NC(=O)c2cccc(C(C)(C)C#N)c2)cc1Nc1ccc2ncn(C)c(=O)c2c1` ?
6.01 µM

----------
- Tested on: SNB-19 CNS
- experiment: NCI tumour cell line growth inhibition, 48 h
Each entry below carries its recorded TGI.

- compound: "O=C1C2C3C=C4c5ccccc5N(c5ccccc5)C4(C2C(=O)N1c1ccc([N+](=O)[O-])cc1)[C@H]1C(=O)N(c2ccc([N+](=O)[O-])cc2)C(=O)[C@@H]31 (some centres undefined)"
  measurement-target: "SNB-19 CNS"
  TGI: "> 100 µM"
- compound: "CN1CCN(CCCNc2nc3ccc(Oc4ccc(NC(=O)Nc5cc(C(F)(F)F)ccc5F)cc4)cc3[nH]2)CC1"
  measurement-target: "SNB-19 CNS"
  TGI: "7.42 µM"
- compound: "CC1(C)/C(=C/N=O)N(O)C(C)(C)N1O"
  measurement-target: "SNB-19 CNS"
  TGI: "> 100 µM"

As a next step, examine the compound that follows.
Could you share which TGI value was measured for `CCO/C=N\C1=C(C#N)SC2=N/C(=C\c3ccc(OC)cc3)C(=O)N21` ?
> 100 µM
